valueType: melting point

Task: Which value of melting point has been reported for Cc1ccc(C2CC(=NNC(=N)N)c3c(C)coc3C2)cc1.Cl (stereo not shown) in the records?
Output: 260 °C (dec.)

Task: Which value of melting point has been reported for Cc1c2c(nn1CCCc1ccccc1)CC(c1ccccc1Cl)CC2=NNC(=N)N.Cl (stereo not shown) in the records?
Output: 170 to 180 °C

Task: Which value of melting point has been reported for Cc1ccnc2c1C(=NNC(=N)N)CC(c1cc(Br)sc1Br)C2.Cl (stereo not shown) in the records?
Output: 272 to 273 °C

More entries:
Task: Which value of melting point has been reported for Cc1ncnc2c1/C(=N/NC(=N)N)CC(c1ccccc1Cl)C2.Cl (stereo not shown) in the records?
Output: 284 °C (dec.)

Task: Which value of melting point has been reported for Cl.N=C(N)NN=C1CC(c2ccccc2)Cc2[nH]ccc21 (stereo not shown) in the records?
Output: 192 to 194 °C

Task: Which value of melting point has been reported for Cc1ccnc2c1C(=NNC(=N)N)CC(c1cc(Cl)sc1Cl)C2 (single isomer, unassigned; (-)) [Compound 112] in the records?
Output: 129 to 133 °C

Ref: patent US6350749B1
